Data origin, for the record: PubChem BioAssay (NCI)

# Test system: NCI/ADR-RES ovarian
# Protocol details: NCI-60 one-dose screen, 48 h (100 = growth as untreated, 0 = no growth, -100 = all killed)
# Experimental setup: 10 µM unless noted
Compounds without any hit were thinned out: in the full panel of roughly 83,000, 20% have a hit. The source made the active and inactive calls. How the source made its calls: active means growth percent below 10; inactive means the rest.
Reported property: growth

*Q* Requested field: growth. Item: Cc1ccc(/C=C/C(=N/N=C(N)N)c2ccccc2)cc1
*A* 35.2% (inactive)

*Q* Further, for Cc1ccc(-c2cnc3sc4ccc(Cl)cc4n23)cc1 ?
*A* 94.6% (inactive)

*Q* Further, for COc1ccc(Nc2ncnc3c2sc2nc(C)cc(C)c23)cc1 ?
*A* 108% (inactive)

*Q* Further, for COS(=O)(=O)CCN(CCOS(C)(=O)=O)S(C)(=O)=O ?
*A* 105% (inactive)

*Q* Further, for COc1cc(-c2n/c(=C\c3c(O)[nH]c4cc(Cl)ccc34)cc3c2=Nc2ccccc2-3)cc(OC)c1OC ?
*A* 84.1% (inactive)

*Q* Further, for Fc1ccc(-c2ccnc3nc(-c4ccncc4)nn23)cc1 ?
*A* 106% (inactive)

*Q* Further, for C#CC[C@@H]1C[C@]2(C)[C@H]3CC=C4[C@H]5[C@@H](C)[C@H](C)CC[C@]5(C(=O)NCCCCN)CC[C@@]4(C)[C@]3(C)CC[C@H]2C(C)(C)[C@H]1OC(C)=O ?
*A* 86.1% (inactive)

*Q* Further, for COc1ccc(C(=O)C(C#N)c2cc(OC)c(OC)c(OC)c2)cc1 (centres undefined) ?
*A* 108% (inactive)

*Q* Further, for O=C(O)C1[S][Sb]([CH](C(=O)O)[CH](C(=O)O)[Sb]2[S]C(C(=O)O)C(C(=O)O)[S]2)[S]C1C(=O)O (centres undefined) ?
*A* 104% (inactive)

* * *

# Test system: HCT-15 colon
# Protocol details: NCI-60 one-dose screen, 48 h
# Experimental setup: 10 µM unless noted
This is part of a sample that, as a whole, favours compounds with a hit. Of some 83,000 tested, about 20% had one in any assay. Activity calls are given as the source filed them. How the source made its calls: active means growth percent below 10; inactive means the rest.
Write down one outcome, taken from YES for active, NO for inactive

*Q* Per the assay record, what outcome was assigned to Cc1cc(NC(=O)c2ccc(N)cc2)ccc1N=Nc1ccc2cc(S(=O)(=O)O)cc(S(=O)(=O)O)c2c1 ?
*A* NO

*Q* Further, for CC1=NC(c2ccc(Cl)cc2)C2=C(N1)/C(=C/c1ccc(Cl)cc1)CCC2 (stereo not drawn) ?
*A* NO

*Q* Further, for Cc1cc(C#Cc2ccccc2)ccc1-n1c(/C=C/c2ccc(F)cc2)nc2ccccc2c1=O ?
*A* NO

*Q* Further, for CC[C@H](Nc1nc(N)nc(C2CC2)c1C#N)c1nc2cccc(NCc3ccc(C(=O)NO)cc3)c2c(=O)n1-c1ccccc1 ?
*A* NO

*Q* Further, for O=C(Cn1nncc1CN1C(=O)CSC1=O)Nc1ccc(F)cc1 ?
*A* NO

*Q* Further, for C/C(=N\OC(=O)Nc1cccc(Cl)c1)c1ccccc1 ?
*A* NO

*Q* Further, for COc1cc(/C=C/C(=O)c2ccc(NC(=O)CSc3nnc(-c4ccc(Cl)cc4)n3-c3ccccc3)cc2)cc(OC)c1OC ?
*A* NO

*Q* Further, for Fc1cc(-c2nnc3sc(-c4ccc(Cl)cc4)nn23)c(Cl)cc1Cl ?
*A* NO

*Q* Further, for O=C1/C(=C\c2cccn2Cc2ccc(Cl)cc2)c2ccccc2N1c1c(Cl)cccc1Cl ?
*A* NO

*Q* Further, for CCOC(=O)c1ccc(NCCC(=O)O)cc1 ?
*A* NO

*Q* Further, for CNCc1ccccc1CN(CC(=O)Nc1ccc2c(c1)CC1(C2)C(=O)Nc2ncccc21)C(=O)C(C)(C)C (stereo not drawn) ?
*A* NO

*Q* Further, for CCN(CC)c1ccc2nc3c4ccccc4c(=O)cc-3n(-c3ccccc3)c2c1 ?
*A* YES

*Q* Further, for CC(=O)O[C@H]1[C@H](CC#CC#CC[C@@H]2C[C@]3(C)[C@H]4CC=C5[C@H]6[C@@H](C)[C@H](C)CC[C@]6(C(=O)NCCCCCCCCN)CC[C@@]5(C)[C@]4(C)CC[C@H]3C(C)(C)[C@H]2OC(C)=O)C[C@]2(C)[C@H]3CC=C4[C@H]5[C@@H](C)[C@H](C)CC[C@]5(C(=O)NCCCCCCCCN)CC[C@@]4(C)[C@]3(C)CC[C@H]2C1(C)C ?
*A* NO

*Q* Further, for c1ccc(-c2[nH]c3ccccc3c2-c2ccccc2)cc1 ?
*A* NO

*Q* Further, for Cc1ccc(/C=C/C(=N/N=C(N)N)c2ccccc2)cc1 ?
*A* NO

*Q* Further, for Cc1ccc(Nc2nc(NCCO)c3ccccc3n2)cc1C ?
*A* NO

*Q* Further, for CCOC(=O)NNc1cccc(Cl)c1 ?
*A* NO

*Q* Further, for CCCCCCCCCCC(C(O)c1ccccc1)N1CCCCC1 (stereo not drawn) ?
*A* NO
